Origin of values: the supplement of paper PMC10567573

# measurement-protocol: protein stability index of a GFP-peptide fusion (GPS, HEK-293T) (PSI 1-6); higher = more stable;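 also: 24-mer peptide tiles fused after GFP, lentivirally expressed, FACS-sorted into six equal bins by GFP/DsRed ratio, decoded by Illumina sequencing, PSI is the read-weighted mean bin number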
# recorded-conditions: treatment: MLN4924 1 uM, 8 h; c terminus: a fixed tail appended
readout: protein stability index
Hey, just send me the number, nothing else.

Study these solved cases before continuing.
RADVDHAIEKAFQLWSNVTPLTFT [MMP1]	2.44
TPEELEEEIPVVICAAAGRMGATM [GLT8D2]	4.29
TDVRGLEEFLSAMQSARGPTPSSP [PLEKHN1]	4.14
RFHGRLLFLKDVLGDEICCWSFYG [KCTD13]	2.56
VDSEQLRRDCDALMAGCIQEARER [CDKN1A]	4.7
ECKQLSESQVKSLCEKAKEILTKE [PPP2CA]	4.82
LPSVPVSVPASDPRSCSSGPAGPY [PLEKHN1]	4.39
AGADLKERAKMSSSEVGPFVSKIR [AUH]	4.07

// returns reported protein stability index for input ELDIPQSVQQNGSIYIHVYFTKSG [CLPTM1]
2.85

What about PDVRPPLGRGLVGGQEEASQEAGL [SEPHS2] ?
5.31

What about PMPLAPTRSHLWEAAQVVPDGLGL [TRIB3] ?
3.34

What about GMDLNLEAEALAGTGLVLDEQLNE [HDAC6] ?
5.33

What about YTRIWSLHDARLLRTIPSPYPASK [DCAF4] ?
2.87

What about GPGDSQGRKRRQTSMTDFYHSKRR [CDKN1A] ?
4.78

What about KFLAFSGPHPKSKIENGYPLHAPE [CDC14A] ?
3.16

What about SFFVPRPTPSTPRPTPQDWLHRRA [ADAMTS4] ?
3.4

###

# measurement-protocol: protein stability index of a GFP-peptide fusion (GPS, HEK-293T) (PSI 1-6); higher = more stable
# recorded-conditions: treatment: DMSO; c terminus: a fixed tail appended
readout: protein stability index
Hey, just send me the number, nothing else.

TAIFYTLMTCEMLNRRNGSLRIAL [EDNRA]	2.85
LIYMVTIMGNLLIIVTIMASQSLG [OR4A15]	3.18

// returns reported protein stability index for input CSSSNLAGNDDSFGSLPSPKELSS [DLC1]
4.37

What about FGASAAGGLSPVTNLTVTMDQLQG [CDC25A] ?
3.65

What about NESMKAYHNSPAYLAYINAKSRAE [SMARCE1] ?
4.42

What about MLQATAEANNLAAAASAKDIYYNN [ATL3] ?
3.15

What about PRELASMSLVLHGNNLLVFGGTGI [KLHDC10] ?
2.46

###

# measurement-protocol: protein stability index of a GFP-peptide fusion (GPS, HEK-293T) (PSI 1-6); higher = more stable
# recorded-conditions: treatment: MLN4924 1 uM, 8 h; c terminus: a fixed tail appended
Hi all, reminder that labels come from protein stability index, split as lower segment (below 3), middle segment (3 to below 4), upper segment (4 or more)

Completed entries (count: 5):
ENITTVSVIKDHHTRSITSCCFDP [WDR88]	middle segment
CNDGRIVIWDFLTRGIAKIISAHI [RBBP5]	lower segment
EISKDNSCKENCTCSSCLLRAPTI [EDARADD]	upper segment
IMLLDKNVPNPRIKLIDFGIAHKI [DAPK3]	lower segment
MRARDSVYHIECFRCSVCSRQLLP [ISL2]	lower segment

Proceed to the following item.
Textbook exercise: identify the category of the sequence given here, ILHGTRGELLLDVAWHPVRPIIAS [RBBP5] , according to its measured value.
lower segment

###

# measurement-protocol: protein stability index of a GFP-peptide fusion (GPS, HEK-293T) (PSI 1-6); higher = more stable
# recorded-conditions: treatment: DMSO; c terminus: a fixed tail appended
Hi all, reminder that labels come from protein stability index, split as low (below 3), mid (3 to below 4), high (4 or more)

SGMVTIITGLPLDNPSVLSGPMQA [SMG5]	low
AAAALFGGKKDKARYIDTHNRVSK [PLK2]	mid
NTRGTGSSSSGVLMVGPNFRVGKK [CSNK1G3]	high
SENMWNTGSTYNLSSGMAVAGMPT [CARM1]	mid
AEHMKRQRHPRLRPQSAQSSFPPS [AUP1]	high
ASSLPAEVHSLTLSPPEQAAQPMQ [PLAGL1]	high
TIVSCTPVHLVDKLPLPSTLRSHL [RAB40A]	low
KQESTRPEKKSDQPMCEEHEEERI [TRIM55]	high
PQRPRSAPRTSSCAERLQSEEQVS [FCHO1]	high
NHAIDIICGFLKERCFRGSSYPVC [OAS1]	low

Textbook exercise: identify the category of the sequence given here, LLNQQSLKRSANQMGVSAKRRPKA [MED27] , according to its measured value.
mid

###

# measurement-protocol: protein stability index of a GFP-peptide fusion (GPS, HEK-293T) (PSI 1-6); higher = more stable
# recorded-conditions: treatment: MLN4924 1 uM, 8 h; c terminus: a fixed tail appended
readout: protein stability index

Study these solved cases before continuing.
LPTDAVDCMSRELVSLTSRNPDQR [FBXO34]	4.9
TCSTRFVSGGSAGGYGGGVSCGFG [KRT13]	2.43
SPLHAAAEAGHVDICHMLVQFCRL [EHMT1]	2.5
PLAVEEDASSSTSTSSSFPSSFPS [MAGEA10]	5.41
EELRKFSSLCYKQRIKSQERETEA [MOG]	4.22

// returns reported protein stability index for input RAGSQVVATTARHSAAYRADPLRV [FUNDC2]
3.78

What about KMVSAEISENRKRQWPTKSQTDRG [SDE2] ?
4.41

What about FPKINHGILYDEEKYKPFSQVPTG [CFHR2] ?
3.36

What about CTPGGTTIYGLHALEQGGLRAATM [PYCR3] ?
2.25

What about DEYQYSFWDLFRSKDNMRTRIMIG [SLC2A12] ?
2.14

What about RAACFDGHLEIVKYLVEHKADLEV [FEM1C] ?
2.66

What about PAFIIVKLSPLRDRLVVTECQLTH [ZSWIM9] ?
3.02

###

# measurement-protocol: protein stability index of a GFP-peptide fusion (GPS, HEK-293T) (PSI 1-6); higher = more stable
# recorded-conditions: treatment: MLN4924 1 uM, 8 h; c terminus: a fixed tail appended
protein stability index overview
Hey, just send me the number, nothing else.

Study these solved cases before continuing.
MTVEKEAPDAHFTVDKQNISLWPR [CD207]	3.86
QVAMPYQWEYPYLLSILPSLLGLL [JAGN1]	2.85
VTVPSMLSRLLSRKRAVPCGACLT [OR3A1]	2.25
EEVRQLLETMARNEVIADINCKGR [OSBPL1A]	3.01
AKEKLESFIKNSDSFDKFEFCEPA [PCMTD1]	3.96

// returns reported protein stability index for input RDWWNSTSFSNYYRTWNVVVHDWL [SOAT2]
2.26

What about SSSSSASSSASSSFSEEGAVGYSS [NFE2L1] ?
5.32

What about PEKKSDQPMCEEHEEERINIYCLN [TRIM55] ?
4.77

What about NSWMGSQGPMSQRRENYGVPPRRA [RBMY1A1] ?
4.28

What about LPDLCLCRVFWWLGDRDRSRAALV [FBXO39] ?
2.76

What about CGFTVAQIITSLVFHLPFYSSNQL [OR10K2] ?
2.95

What about DPNSQVGACIVNSENKIVGIGYNG [DCTD] ?
4.56

What about AQVDGAAMFAADPKKPIGGNIIAH [RAD51] ?
4.36

What about QDIERGVQSEIFLHESYCMDTSHQ [LYSMD4] ?
4.25

What about SENIKLREENEKLRLENSSLFSQA [CCDC89] ?
4.58

What about YETESETESEIESETDFETEPETA [GNAS] ?
5.22

What about SFRAGSKGLSGGFGSRSLYSLGGV [KRT71] ?
2.77

What about "WIGLFLVATGSQQSLAQPLPGNTT" ?
2.96

What about IPQLEDVSNFLKERTGFSIRPVAG [TPH1] ?
2.98

###

protein stability index overview
# measurement-protocol: protein stability index of a GFP-peptide fusion (GPS, HEK-293T) (PSI 1-6); higher = more stable
# recorded-conditions: treatment: MLN4924 1 uM, 8 h; c terminus: a fixed tail appended
Hey, just send me the number, nothing else.

Study these solved cases before continuing.
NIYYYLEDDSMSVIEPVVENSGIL [EFHC1]	2.41
MKDSMSAAEVGTGQYATTKGISQT [EPB41L3]	4.78
AAWGARVFSFGKHYWELDVDNSCD [TRIM43]	2.28
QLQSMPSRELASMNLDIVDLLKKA [RHOBTB3]	3.79
QILDSLSYMRNENVISELNIEDYF [FBXO39]	2.2

Let us move to another entry and its protein stability index.
// returns reported protein stability index for input PRELASMSLVLHGNNLLVFGGTGI [KLHDC10]
2.45
